Target: SIX1 homeodomain (reference allele) (human, UniProt Q15475 108-198)
Sequence: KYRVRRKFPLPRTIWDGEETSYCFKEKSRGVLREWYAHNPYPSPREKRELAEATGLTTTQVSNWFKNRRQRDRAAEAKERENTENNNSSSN
Test: universal protein binding microarray; Universal all-10-mer PBM (8x60K, AMADID 030236), 300 nM GST-tagged protein, Alexa Fluor 488 anti-GST; buffer, salt, pH and temperature not stated (as in Berger); high values mean tight binding
Details: protein: ivt; tags: N-terminal GST; dsDNA, one strand shown
Whole data set: some 33,000 sequences, median “e-score” near -0.053, cut for the highest 2% near 0.38. What follows is part of a selection rich in the highest values, with near analogues and random picks from the rest.
Property: binding signal; scope: individual sequences
Provide the reading as a plain figure in E-score.

# Chain sequence, System, Measurement unit, binding signal
measured = [
    ("GCCTGATA", "SIX1 homeodomain (reference allele) (human, UniProt Q15475 108-198)", "E-score", 0.321),
    ("CCATGAGA", "SIX1 homeodomain (reference allele) (human, UniProt Q15475 108-198)", "E-score", 0.242),
    ("CAGTGTAG", "SIX1 homeodomain (reference allele) (human, UniProt Q15475 108-198)", "E-score", 0.161),
    ("GTACGATA", "SIX1 homeodomain (reference allele) (human, UniProt Q15475 108-198)", "E-score", 0.338),
]

Give a short answer stating reported binding signal for `ATCCCCTA` .
0.374

Give a short answer stating reported binding signal for `ATATCATA` .
0.442

Assign binding signal to the following record: `ATCTCATG`
0.197

Tell me its binding signal given `AGATCTCA` as the entry.
0.262

====

Target: SIX1 homeodomain (reference allele) (human, UniProt Q15475 108-198)
Sequence: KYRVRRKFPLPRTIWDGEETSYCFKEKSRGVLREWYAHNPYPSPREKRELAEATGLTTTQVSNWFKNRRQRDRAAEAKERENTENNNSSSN
Experiment: universal protein binding microarray; Universal all-10-mer PBM (8x60K, AMADID 030236), 300 nM GST-tagged protein, Alexa Fluor 488 anti-GST; buffer, salt, pH and temperature not stated (as in Berger); high values mean tight binding
Conditions: protein: ivt; tags: N-terminal GST; dsDNA, one strand shown
Over roughly 33,000 sequences, “e-score” has its median near -0.053; the highest 2% begin near 0.38. What follows is part of a selection rich in the highest values, with near analogues and random picks from the rest.
Some sequences, each annotated with its measured binding signal.
Just the number in E-score, nothing appended.

Consider the reported binding signal for these sequences:
# Chain sequence, System, Measurement unit, binding signal
rows = [
    ("ATCTAATA", "SIX1 homeodomain (reference allele) (human, UniProt Q15475 108-198)", "E-score", 0.237),
    ("TAACACCA", "SIX1 homeodomain (reference allele) (human, UniProt Q15475 108-198)", "E-score", 0.299),
    ("ATCCATTA", "SIX1 homeodomain (reference allele) (human, UniProt Q15475 108-198)", "E-score", 0.244),
    ("TATCTAAA", "SIX1 homeodomain (reference allele) (human, UniProt Q15475 108-198)", "E-score", 0.301),
]

Identify measured binding signal associated with `CGATATGA`
0.311
